# protocol.summary: Cytotoxicity against gingival epithelial cells (unknown origin)
# Format: toxicity, cell-based
# setup.conditions: epithelial cell
measurement.label: Activity

COc1ccc2cc(-c3cn(-c4cccc(-c5nc(-c6ccc(Br)cc6)c(-c6ccc(Br)cc6)o5)c4)nn3)ccc2c1 : Toxic
COc1ccccc1-c1cn(Cc2nc(-c3ccc(F)cc3)c(-c3ccc(F)cc3)o2)nn1 : Toxic
Fc1ccc(-c2nc(-c3ccc(-n4cc(-c5cccnc5)nn4)cc3)oc2-c2ccc(F)cc2)cc1 : Toxic
COc1ccccc1-c1cn(-c2cccc(-c3nc(-c4ccc(Br)cc4)c(-c4ccc(Br)cc4)o3)c2)nn1 : Toxic
Cc1ccccc1-c1cn(Cc2nc(-c3ccccc3)c(-c3ccccc3)o2)nn1 : Toxic

Endpoint output: Activity of COc1ccc(-c2nc(-c3cccc(-n4cc(-c5ccccc5OC)nn4)c3)oc2-c2ccc(OC)cc2)cc1 . Value?
Toxic

I am curious: what Activity value has been reported for Fc1ccc(-c2cn(Cc3nc(-c4ccccc4)c(-c4ccccc4)o3)nn2)cc1 ?
Toxic

Can you look up the measured Activity of COc1ccccc1-c1cn(Cc2nc(-c3ccccc3)c(-c3ccccc3)o2)nn1 for me?
Toxic

Need Activity of Fc1cccc(-c2cn(-c3cccc(-c4nc(-c5ccc(Br)cc5)c(-c5ccc(Br)cc5)o4)c3)nn2)c1 , thanks.
Toxic

For COc1ccc(-c2nc(-c3cccc(-n4cc(-c5ccccc5C(F)(F)F)nn4)c3)oc2-c2ccc(OC)cc2)cc1 , what is its reported Activity?
Toxic

Entry under review: COc1ccc(-c2nc(-c3cccc(-n4cc(-c5cccc(F)c5)nn4)c3)oc2-c2ccc(OC)cc2)cc1 . Reported Activity?
Toxic

Entry under review: COc1ccc(-c2nc(-c3cccc(-n4cc(-c5cccnc5)nn4)c3)oc2-c2ccc(OC)cc2)cc1 . Reported Activity?
Toxic

----------
# protocol.summary: Inhibition of Porphyromonas gingivalis ATCC 33277 MFA interaction with Streptococcus gordonii DL1(1) antigen 1/2 assessed as inhibition of 5(6)-carboxyfluorescein N-hydroxysuccinimide ester-labeled Porphyromonas gingivalis ATCC 33277 cell adhesion to hexidium iodide-labeled Streptococcus gordonii DL1(1) by measuring inhibition of biofilm formation preincubated with Porphyromonas gingivalis ATCC 33277 for 30 mins followed by addition to Streptococcus gordonii DL1(1) culture measured after 22 hrs by laser scanning confocal microscopy
# Format: cell-based
Threshold-based label: IC50 under 20 µM gives 1, IC50 not under 20 µM gives -1.

For orientation, consider the following solved cases.
Fc1ccc(-c2nc(-c3ccc(-n4cc(-c5ccccc5C(F)(F)F)nn4)cc3)oc2-c2ccc(F)cc2)cc1 : 1
Fc1cccc(-c2cn(-c3ccc(-c4nc(-c5ccc(Cl)cc5)c(-c5ccc(Cl)cc5)o4)cc3)nn2)c1 : 1
COc1ccccc1-c1cn(Cc2nc(-c3ccc(Br)cc3)c(-c3ccc(Br)cc3)o2)nn1 : -1
Fc1cccc(-c2cn(-c3cccc(-c4nc(-c5ccc(Br)cc5)c(-c5ccc(Br)cc5)o4)c3)nn2)c1 : 1
COc1ccc2cc(-c3cn(Cc4nc(-c5ccccc5)c(-c5ccccc5)o4)nn3)ccc2c1 : -1

Please check: IC50 for COc1ccc(-c2nc(-c3cccc(-n4cc(-c5cccc(F)c5)nn4)c3)oc2-c2ccc(OC)cc2)cc1 , strictly under 20 µM or not?
1

Lab note: IC50 threshold 20 µM. Does this molecule come in strictly under it? COc1ccc2cc(-c3cn(Cc4nc(-c5ccc(Cl)cc5)c(-c5ccc(Cl)cc5)o4)nn3)ccc2c1
1

Does this molecule meet the criterion IC50 < 20 µM? Fc1cccc(-c2cn(Cc3nc(-c4ccccc4)c(-c4ccccc4)o3)nn2)c1
-1

Hi there! Is IC50 for FC(F)(F)c1ccccc1-c1cn(-c2cccc(-c3nc(-c4ccc(Br)cc4)c(-c4ccc(Br)cc4)o3)c2)nn1 below 20 µM, do you know?
1

Threshold test, IC50 < 20 µM: COc1ccc(-c2nc(-c3cccc(-n4cc(-c5ccccc5C(F)(F)F)nn4)c3)oc2-c2ccc(OC)cc2)cc1
-1
